Test system: K98450-129-R-PDC complex spheroid growth, percent test/control
assay details: Anticancer human tumor K98450-129-R-PDC patient-derived colon adenocarcinoma cell line growth inhibition [RAS]
test settings: second compound 0.3 µM; first compound 0.316 µM; stronger effect = lower value
Measured viability, T/C values are reported for all entries that follow.
Please state the figure in %; there is no need to write the unit.

| compound | quantity | experimental result |
| --- | --- | --- |
| CCN1CCN(Cc2ccc(Nc3ncc(F)c(-c4cc(F)c5nc(C)n(C(C)C)c5c4)n3)nc2)CC1 + CCn1c(-c2cccnc2C(C)OC)c2c3cc(ccc31)N1CCOC(CC(NC(=O)C(C(C)C)N(C)C(=O)C3(F)CCN(C(=O)C#CC(C)(C)N(C)C)CC3)C(=O)N3CCCC(N3)C(=O)OCC(C)(C)C2)C1 | viability, T/C | 36.1 |

Query compound follows.
Recorded result, Nc1ccn(C2OC(CO)C(O)C2(F)F)c(=O)n1 (configuration not stated) + CCn1c(-c2cccnc2C(C)OC)c2c3cc(ccc31)N1CCOC(CC(NC(=O)C(C(C)C)N(C)C(=O)C3(F)CCN(C(=O)C#CC(C)(C)N(C)C)CC3)C(=O)N3CCCC(N3)C(=O)OCC(C)(C)C2)C1 , viability, T/C: 19.5

###

Measured viability, T/C values are reported for all entries that follow.
Test system: K98450-129-R-PDC complex spheroid growth, percent test/control
assay details: Anticancer human tumor K98450-129-R-PDC cell line growth inhibition [RAS];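 note: luminescence used as a proxy for viable cell amount; spheroids exposed to agents for seven days before the viability readout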
test settings: second compound 0.01 µM; first compound 0.01 µM; stronger effect = lower value

Below are worked cases with known answers.
| compound | target desc | viability, T/C |
| --- | --- | --- |
| O=C(c1ccc(F)c(F)c1Nc1ccc(I)cc1F)N1CC(O)([C@@H]2CCCCN2)C1 + C=CC(=O)N1CCN(c2nc(OCC3CCCN3C)nc3c(F)c(-c4nc(N)cc(C)c4C(F)(F)F)c(Cl)cc23)C(C)C1 | K98450-129-R-PDC complex spheroid growth, percent test/control | 77.6% |
| CCN1CCN(Cc2ccc(Nc3ncc(F)c(-c4cc(F)c5nc(C)n(C(C)C)c5c4)n3)nc2)CC1 + C=CC(=O)N1CCN(c2nc(OCC3CCCN3C)nc3c(F)c(-c4nc(N)cc(C)c4C(F)(F)F)c(Cl)cc23)C(C)C1 | K98450-129-R-PDC complex spheroid growth, percent test/control | 86.8% |
| CC(C)n1nc(-c2ccc3oc(N)nc3c2)c2c(N)ncnc21 + C=CC(=O)N1CCN(c2nc(OCC3CCCN3C)nc3c(F)c(-c4nc(N)cc(C)c4C(F)(F)F)c(Cl)cc23)C(C)C1 | K98450-129-R-PDC complex spheroid growth, percent test/control | 70% |
| C=CC(=O)Nc1cc(Nc2nccc(-c3cn(C)c4ccccc34)n2)c(OC)cc1N(C)CCN(C)C + C=CC(=O)N1CCN(c2nc(OCC3CCCN3C)nc3c(F)c(-c4nc(N)cc(C)c4C(F)(F)F)c(Cl)cc23)C(C)C1 | K98450-129-R-PDC complex spheroid growth, percent test/control | 78% |

Query compound follows.
Recorded result, Nc1ccn(C2OC(CO)C(O)C2(F)F)c(=O)n1 (stereo not given) + C=CC(=O)N1CCN(c2nc(OCC3CCCN3C)nc3c(F)c(-c4nc(N)cc(C)c4C(F)(F)F)c(Cl)cc23)C(C)C1 , viability, T/C: 76.8%

All values here come from PubChem BioAssay AID2060891.
